Molecular target: IKKε (Homo sapiens (Human), UniProt Q14164)
Sequence (Q14164 whole entry): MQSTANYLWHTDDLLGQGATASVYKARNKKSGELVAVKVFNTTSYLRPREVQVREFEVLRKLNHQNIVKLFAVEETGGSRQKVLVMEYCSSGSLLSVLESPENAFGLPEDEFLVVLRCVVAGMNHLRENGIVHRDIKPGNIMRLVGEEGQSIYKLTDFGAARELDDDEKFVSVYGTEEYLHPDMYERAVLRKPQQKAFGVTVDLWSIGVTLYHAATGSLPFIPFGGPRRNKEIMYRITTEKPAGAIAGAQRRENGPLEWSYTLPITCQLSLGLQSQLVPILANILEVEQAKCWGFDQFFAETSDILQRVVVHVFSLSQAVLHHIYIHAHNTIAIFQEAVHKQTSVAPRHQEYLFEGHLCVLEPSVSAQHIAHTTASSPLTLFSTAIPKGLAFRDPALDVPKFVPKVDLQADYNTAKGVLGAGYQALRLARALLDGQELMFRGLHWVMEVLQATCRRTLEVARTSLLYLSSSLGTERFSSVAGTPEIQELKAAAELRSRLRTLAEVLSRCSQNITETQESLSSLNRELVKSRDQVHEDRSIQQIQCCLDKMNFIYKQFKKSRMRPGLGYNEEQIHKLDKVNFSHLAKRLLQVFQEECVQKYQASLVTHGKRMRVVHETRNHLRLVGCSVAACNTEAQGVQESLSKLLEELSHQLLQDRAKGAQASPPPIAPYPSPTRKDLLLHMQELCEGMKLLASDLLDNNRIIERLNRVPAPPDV
Test: IKKε TR-FRET enzymatic assay
Assay type: biochemical
Conditions: TR-FRET, 2×Km ATP; geometric mean of minimum four determinations; read-out: IKKe IC50
readout: pIC50
Answers are plain numbers, as −log10 of the molar value.

Below are worked cases with known answers.
molecule | pIC50
C[C@@H](O)CC(=O)N1CC[C@H](Oc2ccc(-c3ncnc(Nc4ccc(N5CCN(C6COC6)CC5)cc4)n3)cc2C#N)[C@H](F)C1 | 7.85
C[C@H](O)C(=O)N1C[C@@H](F)[C@@H](Oc2ccc(-c3ncnc(Nc4ccc(N5CCN(C6COC6)CC5)cc4)n3)cc2C#N)C[C@@H]1C | 6.85
CN1CCC(COc2ccc(-c3ncnc(Nc4ccc(N5CCN(C6COC6)CC5)cc4)n3)cc2C#N)CC1=O (stereo not shown) | 6.39

Input line: Form: Entry = `N#Cc1cc(-c2ncnc(Nc3ccc(N4CCN(C5COC5)CC4)cc3)n2)ccc1OCCn1ccnc1` | System = IKKε (Homo sapiens (Human), UniProt Q14164) | pIC50 = ____
Output line: 7.64

###

List of pIC50 tested on hJAK2 (Homo sapiens (Human), UniProt O60674).
Sequence (O60674 whole entry): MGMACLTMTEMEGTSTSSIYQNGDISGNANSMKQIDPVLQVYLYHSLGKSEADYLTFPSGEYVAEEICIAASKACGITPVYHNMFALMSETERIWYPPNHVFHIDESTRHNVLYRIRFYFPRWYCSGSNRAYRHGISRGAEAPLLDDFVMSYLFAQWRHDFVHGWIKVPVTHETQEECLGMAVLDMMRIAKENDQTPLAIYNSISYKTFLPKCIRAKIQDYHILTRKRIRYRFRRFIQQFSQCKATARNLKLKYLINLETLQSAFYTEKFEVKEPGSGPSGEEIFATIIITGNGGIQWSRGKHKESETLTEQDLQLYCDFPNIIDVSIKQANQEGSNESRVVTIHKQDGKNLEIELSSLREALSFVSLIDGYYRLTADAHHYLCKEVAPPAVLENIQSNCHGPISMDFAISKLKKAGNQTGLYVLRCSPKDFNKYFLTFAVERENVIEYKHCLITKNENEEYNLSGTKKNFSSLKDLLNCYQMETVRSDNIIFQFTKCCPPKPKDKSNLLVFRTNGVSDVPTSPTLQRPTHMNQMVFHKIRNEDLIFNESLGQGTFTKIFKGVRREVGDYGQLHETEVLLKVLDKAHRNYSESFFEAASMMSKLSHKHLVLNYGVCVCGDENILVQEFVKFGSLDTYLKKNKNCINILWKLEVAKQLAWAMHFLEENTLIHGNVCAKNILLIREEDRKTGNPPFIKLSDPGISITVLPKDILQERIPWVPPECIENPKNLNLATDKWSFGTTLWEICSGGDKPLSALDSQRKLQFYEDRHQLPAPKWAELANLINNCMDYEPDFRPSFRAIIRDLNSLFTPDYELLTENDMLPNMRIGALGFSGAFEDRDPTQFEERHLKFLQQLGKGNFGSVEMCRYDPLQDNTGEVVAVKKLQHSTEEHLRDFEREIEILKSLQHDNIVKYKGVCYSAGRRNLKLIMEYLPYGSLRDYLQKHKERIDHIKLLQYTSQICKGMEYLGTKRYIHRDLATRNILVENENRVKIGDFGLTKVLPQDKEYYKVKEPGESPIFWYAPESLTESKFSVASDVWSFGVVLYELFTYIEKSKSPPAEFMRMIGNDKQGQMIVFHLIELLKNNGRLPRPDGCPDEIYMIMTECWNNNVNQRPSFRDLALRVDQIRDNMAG
Give bare numbers, as −log10 of the molar value.

molecule | readout | measured
N#Cc1cc(-c2ncnc(Nc3ccc(N4CCN(C5COC5)CC4)cc3)n2)ccc1O[C@H]1CCN(C(=O)c2nnc[nH]2)C[C@H]1F [Example 144] | pIC50 | 6.98

Your task in this section: give pIC50 for each listed record.
1. C[C@H](O)C(=O)N1CC[C@H](Oc2ccc(-c3ncnc(Nc4ccc(N5C[C@@H](C)N(C6COC6)C[C@@H]5C)cc4)n3)cc2C#N)[C@H](F)C1 [Example 265]
2. N#CCC(=O)N1CC[C@@H](Oc2ccc(-c3ncnc(Nc4ccc(N5CCN(C6COC6)CC5)cc4)n3)cc2C#N)C1 [Example 90]
3. CCn1cc(Nc2ncnc(-c3ccc(O[C@H]4CCN(C(=O)CO)C[C@H]4F)c(C#N)c3)n2)cn1 [Example 360]
4. N#CCC(=O)N1CC[C@H](Oc2ccc(-c3ncnc(Nc4ccc(N5CCN(C6COC6)CC5)cc4)n3)cc2C#N)[C@H](F)C1 [Example 138]
5. C[C@H](O)C(=O)N1CCC[C@H](Oc2ccc(-c3ncnc(Nc4ccc(N5CCN(C6COC6)CC5)cc4)n3)cc2C#N)C1 [Example 128]
6. N#Cc1cc(-c2ncnc(Nc3ccc(N4CCN(C5COC5)CC4)cc3)n2)ccc1OC1CC2CCC(C1)N2C(=O)CO (stereo not shown) [Example 173]
7. CS(=N)(=O)c1ccc(Nc2ncnc(-c3ccc(O[C@H]4CCN(C=O)CC4(F)F)c(C#N)c3)n2)cc1 (stereo partly shown) [Example 482]
8. C[C@H](O)C(=O)N1CC(F)C(Oc2ccc(-c3ncnc(Nc4ccc(N5CCN(C6COC6)CC5)cc4)n3)cc2C#N)C(C)(C)C1 (stereo partly shown) [Example 180]

Output line:
[6.37, 6.53, 6.73, 6.84, 6.20, 6.58, 6.66, 6.50]

###

Target: TBK1 (Homo sapiens (Human))
Sequence (Q9UHD2 whole entry): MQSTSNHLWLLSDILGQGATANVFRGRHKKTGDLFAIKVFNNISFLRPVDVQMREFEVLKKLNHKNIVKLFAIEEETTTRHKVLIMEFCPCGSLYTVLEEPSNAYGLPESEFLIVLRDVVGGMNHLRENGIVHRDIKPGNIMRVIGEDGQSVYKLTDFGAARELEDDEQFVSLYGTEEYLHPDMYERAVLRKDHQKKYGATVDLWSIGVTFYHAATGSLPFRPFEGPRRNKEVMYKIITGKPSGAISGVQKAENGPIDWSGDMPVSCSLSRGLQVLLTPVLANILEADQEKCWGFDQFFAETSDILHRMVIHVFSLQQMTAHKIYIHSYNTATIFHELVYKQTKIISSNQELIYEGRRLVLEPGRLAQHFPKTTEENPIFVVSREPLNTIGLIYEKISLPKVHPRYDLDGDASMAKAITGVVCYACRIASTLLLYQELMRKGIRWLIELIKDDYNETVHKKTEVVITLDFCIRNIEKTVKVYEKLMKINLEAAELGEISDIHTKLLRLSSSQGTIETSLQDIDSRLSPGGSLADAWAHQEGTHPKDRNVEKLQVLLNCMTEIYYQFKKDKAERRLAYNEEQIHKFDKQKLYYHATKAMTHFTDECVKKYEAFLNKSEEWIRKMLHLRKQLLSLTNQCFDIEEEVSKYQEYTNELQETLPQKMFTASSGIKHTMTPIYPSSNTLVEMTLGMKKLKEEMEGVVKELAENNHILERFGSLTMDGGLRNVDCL
Assay: TBK1 TR-FRET enzymatic assay;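 note: phosphorylation of a biotinylated Ser/Thr peptide by purified full-length recombinant TBK1, read by TR-FRET after 240 min at 25 °C, IC50 is the geometric mean of at least four runs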
So I've got a bunch of compounds here, and I need their IC50 values.
One number for each entry, in nM.

smiles.code | target.or.test.system | readout | units.label | measured
COC(=O)N1CC[C@@H](Oc2ccc(-c3ncnc(Nc4ccc(N5CCN(C6COC6)CC5)cc4)n3)cc2C#N)C1 | TBK1 (Homo sapiens (Human)) | IC50 | nM | 37
N#Cc1cc(-c2ncnc(Nc3ccc(N4CCO[C@@H](CO)C4)cc3)n2)ccc1OC1CCN(C(=O)CO)CC1 | TBK1 (Homo sapiens (Human)) | IC50 | nM | 2
C[C@H](O)C(=O)N1CC[C@H](Oc2ccc(-c3ncnc(Nc4ccc(N5CCCOCC5)cc4)n3)cc2C#N)[C@H](F)C1 | TBK1 (Homo sapiens (Human)) | IC50 | nM | 3
CC(C)NC(=O)c1ccc(Nc2ncnc(-c3ccc(O[C@@H]4CCN(C(=O)CO)C4)c(C#N)c3)n2)cc1 | TBK1 (Homo sapiens (Human)) | IC50 | nM | 8
C[C@H]1CN(C2COC2)CCN1c1ccc(Nc2ncnc(-c3ccc(O[C@H]4CCN(C(=O)CC#N)CC4(F)F)c(C#N)c3)n2)cc1 | TBK1 (Homo sapiens (Human)) | IC50 | nM | 3

Your task in this section: give IC50 for each listed record.
1. Cc1n[nH]c(C(=O)N2CC[C@H](Oc3ccc(-c4ncnc(Nc5ccc(N6CCN(C7COC7)CC6)cc5)n4)cc3C#N)[C@H](F)C2)c1C
2. N#Cc1cc(-c2ncnc(Nc3ccc(N4CCN(C5COC5)CC4)cc3)n2)ccc1N1CCC2(COC2)C1
3. N#Cc1cc(-c2ncnc(Nc3ccc(N4CCN(C5COC5)CC4)nc3)n2)ccc1OC1CCOCC1

Output line:
[9, 12, 7]

Your task in this section: give IC50 for each listed record.
1. N#Cc1cc(-c2ncnc(Nc3ccc4oc(=O)[nH]c4c3)n2)ccc1OC1CCOCC1
2. N#Cc1cc(-c2ncnc(Nc3ccc(N4CCN(C5COC5)CC4)cc3)n2)ccc1O[C@H]1CCN(C(=O)C2(O)COC2)C[C@H]1F
3. C[C@H](O)C(=O)N1CC[C@H](Oc2ccc(-c3ncnc(Nc4cn(C)nc4CO)n3)cc2C#N)[C@H](F)C1

Output line:
1: 18; 2: 19; 3: 92

Your task in this section: give IC50 for each listed record.
1. N#Cc1cc(-c2ncnc(Nc3ccc(N4CCN(C5COC5)CC4)cc3)n2)ccc1O[C@@H]1CCCN(C(=O)CO)C1
2. N#Cc1cc(-c2ncnc(Nc3ccc(N4CCN(C5COC5)CC4)cc3)n2)ccc1O[C@H]1CCN(C(=O)[C@@H]2CCCC(=O)N2)C[C@H]1F
3. C[C@H](O)C(=O)N1CC[C@H](Oc2ccc(-c3ncnc(Nc4ccc(N5C[C@@H](C)N(C6COC6)C[C@@H]5C)cc4)n3)cc2C#N)[C@H](F)C1

Output line:
1: 31; 2: 3; 3: 5
